Entries annotated with measured pIC50
# Study Target: CDK4-NanoLuc fusion with CCND1 in 293T or 293 cells (Homo sapiens)
# Construct: host or cells: 293T (ATCC CRL-3216) or 293 (ATCC CRL-1573)
# Sequence (P11802 whole entry, the tested form may be a part): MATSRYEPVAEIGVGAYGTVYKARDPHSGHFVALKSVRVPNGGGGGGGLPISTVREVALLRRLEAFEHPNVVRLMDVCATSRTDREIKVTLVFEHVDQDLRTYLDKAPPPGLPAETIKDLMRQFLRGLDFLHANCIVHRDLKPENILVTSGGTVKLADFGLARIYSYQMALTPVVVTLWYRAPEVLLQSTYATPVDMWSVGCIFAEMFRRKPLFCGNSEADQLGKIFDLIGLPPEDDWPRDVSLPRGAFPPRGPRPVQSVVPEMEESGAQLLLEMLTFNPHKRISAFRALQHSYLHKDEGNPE
# Sequence (P24385 whole entry partner, the tested form may be a part): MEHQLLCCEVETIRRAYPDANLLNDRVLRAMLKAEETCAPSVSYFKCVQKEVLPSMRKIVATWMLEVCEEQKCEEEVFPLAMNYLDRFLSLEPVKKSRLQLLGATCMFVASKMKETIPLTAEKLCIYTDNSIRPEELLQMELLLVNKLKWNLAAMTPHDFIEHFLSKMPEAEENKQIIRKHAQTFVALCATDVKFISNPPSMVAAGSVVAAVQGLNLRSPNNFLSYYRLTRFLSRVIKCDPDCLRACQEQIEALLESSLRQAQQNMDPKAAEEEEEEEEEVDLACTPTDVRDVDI
# Experiment Summary: NanoBRET Target Engagement (TE) Intracellular Kinase Assay, CDK4/CCND1
# Format: cell-based
# Conditions: NanoBRET TE intracellular kinase assay, 2-hour incubation, read-out: NanoBRET-CDK4/D1 IC50
pIC50: −log10 of the molar value.

Examples with answers:
>  <Mol>
CNC(=O)O[C@@H]1CC[C@H](c2cc(NC(=O)c3cc(-c4cccc(O)c4C=O)nn3C)n[nH]2)C1

>  <Value Measured>
< 5.00

$$$$
>  <Mol>
Cc1ccc(OCC(=O)Nc2cc([C@H]3CC[C@@H](OC(=O)NC(C)C)C3)[nH]n2)c(C=O)c1O

>  <Value Measured>
< 5.00

$$$$

Turning now to a further record.
Look up pIC50: COc1cc(O)c(C=O)c(OCC(=O)Nc2cc([C@H]3CC[C@@H](OC(=O)N4CC5CC(C4)O5)C3)[nH]n2)c1
< 5.00
